Experiment: sensitizers of A549 cells to miR-34 induction, primary screen, imaging, A549 dox-inducible miR-34, nuclei and caspase counts (AID 1347080)
Conditions: A549 miR-34 inducible, Hoechst nuclei count, 48 h; active compounds read low; cell number ratio, induced over uninduced
Assignment: determine reported fold change for the given compounds.
Numbers only.

Incoming: # input compound: `CC(C)(Cc1c[nH]c2ccc(Cl)cc12)NCCOc1ccccc1OCC1CC1` ; wanted: its fold change
Outgoing: 0.921

Incoming: Repeat with `CN(C)CCN(C)CCc1ccc(Cl)c(Cl)c1`
Outgoing: 0.927

Incoming: Follow-up entry: `CCCCC/C=C\C/C=C\C/C=C\C/C=C\CCCC(=O)NCCF`
Outgoing: 1

Could you report fold change for every entry in the following list?
1. O=C1CCC[C@@H]2[C@@H]3CCCN4CCC[C@H](CN12)[C@@H]34
2. O=C(O)CNC(=O)c1c(O)c2ccccc2n(Cc2ccccc2)c1=O
3. COc1ccc(/C=C/C(=O)CC(=O)/C=C/c2ccc(OC)c(OC)c2)cc1OC

Outgoing:
1. 0.961
2. 1.05
3. 0.864

// each listed compound needs a value for fold change
1. CCCCC/C=C\C/C=C\C/C=C\C/C=C\CCCC(=O)O[C@H](COC(=O)CCCCCCCCCCCCCCCCC)COP(=O)([O-])OCC[N+](C)(C)C
2. C(=C\c1ccccc1)/CN1CCN(CCOC(c2ccccc2)c2ccccc2)CC1
3. CC1=NCCc2c1[nH]c1cc(O)ccc21

Outgoing:
1: 0.924; 2: 0.938; 3: 0.845

Return reported fold change values for all items listed beneath this line.
1. CCCCCCCCCCCC[N+](C)(C)CCOc1ccccc1
2. CCCCCCCCCCNCCC (tested in a mixture with another compound)

Outgoing:
[0.988, 0.945]

====

Answer each item with its documented inhibition.
Target: L-lactate dehydrogenase (Plasmodium falciparum (isolate CDC / Honduras))
Assay: PfLDH activity inhibition – cell lysate, 3D7 strain, counter-screen for P. falciparum growth inhibition project (AID 2304);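 note: 0% = vehicle and 100% = reference inhibitor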
Details: P. falciparum 3D7 crude extract, LDH APAD/NBT absorbance; at 2 µM; active compounds read high
One number for each entry, in %.

Would you be so kind as to report inhibition for each listed record?
1. COC(=O)c1ccc(CC(C)NCC(O)c2cccc3ccccc23)cc1 (centres undefined)
2. CC(C)CNCc1cccc(-c2ccc(CN(C(=O)Nc3ccccc3)C3CCN(Cc4ccccc4)CC3)cc2)c1

Outgoing:
4
-2

List the reported inhibition of each molecule below.
1. CC(Cc1ccc(Sc2ccccc2)cc1)NCC(O)c1cccc(C(F)(F)F)c1 (centres undefined)
2. CO/C(=C\C=C\c1cc2cc(Cl)c(Cl)cc2[nH]1)C(=O)N[C@H]1CN2CCC1CC2
3. CCC(C)CN1CCC(N(C)c2cc(NC(=O)c3ccc(F)cc3)ccn2)CC1 (centres undefined)
4. CCOC(=O)c1ccc(CC(C)NCC(O)c2cccc(C(F)(F)F)c2)cc1 (centres undefined)
5. Cc1ccc(C[C@H](C)NC[C@H](O)c2cccc(C(F)(F)F)c2)cc1
6. CC(C)CNCc1cccc(-c2cccc(CN(C(=O)NC3CCCCC3)C3CCN(Cc4ccccc4)CC3)c2)c1
7. CCCc1c(C(=O)NC2CCC(CN3CCC(c4c[nH]c5ccccc45)CC3)CC2)cnn1-c1ccccc1 (centres undefined)

Outgoing:
[2, -2, -5, -9, -1, 8, -1]

State the recorded inhibition for every item in the following list.
1. O=C(/C=C/c1ccc(Cl)c(Cl)c1)NC[C@@H]1CCC[C@H](CN2CCC(c3c[nH]c4ccccc34)CC2)C1
2. CC[C@H]1CN2CC[C@@H]1C[C@H]2[C@H](O)c1cc(N2CCC(O)CC2)nc2ccc(OC)cc12
3. CN(C)CCCOc1ccc(CN2CCC(c3c[nH]c4ccc(NCC5CCCCC5)cc34)CC2)cc1
4. CC1=CC(=O)[C@@H](O)[C@]2(C)[C@H]3[C@@]4(O)OC[C@@]35[C@@H](C[C@@H]12)OC(=O)C[C@H]5[C@@H](C)[C@H]4O

Outgoing:
1: -4; 2: 3; 3: 3; 4: 4

Each molecule below has a recorded value; state its inhibition.
1. CCCCCCCSc1ccc(CC(C)NCC(O)c2cccc(Cl)c2)cc1 (centres undefined)
2. CC[C@H]1CN2CC[C@H]1C[C@H]2[C@H](O)c1cc(Cl)nc2ccc(OC)cc12
3. COc1coc(C(=O)NC2CCN(CC3(c4ccc(Cl)cc4)CCC3)CC2)c1OC
4. Cc1[nH]c2ccc([N+](=O)[O-])cc2c1C1=CCN(C)CC1
5. COC(=O)c1ccc(CC(C)NCC(O)c2cccc(Oc3cccc(C(F)(F)F)c3)c2)cc1 (centres undefined)
6. CN(c1ccnc(Nc2ccc(CS(C)(=O)=O)cc2)n1)C1CCN(Cc2ccccc2)CC1

Outgoing:
[-3, 2, -3, 4, 2, 1]

====

Test: CellTiter-Glo luminescent readout of SW480 viability loss, NPC library primary (AID 1117343)
Conditions: CellTiter-Glo luminescence; at 20 µM (top of the series)
Calls of active or inactive are those of the source.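 Rule for the calls: active = compounds that lower viability of the colon cancer cells in the luminescence readout, with no numeric limit stated; inactive = the rest.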
Respond only with the outcome that fits, drawn from t for active, f for inactive

Consider the following illustrative entries.
Incoming: I would be grateful if you could indicate the recorded call for CCCOC(=O)c1cncn1C(C)c1ccccc1 (centres undefined) .
Outgoing: f

Incoming: Query `N#CC(C#N)=Cc1ccc(O)c(O)c1` next
Outgoing: t

Incoming: `O=[N+]([O-])c1cc(I)c(O)c(I)c1` , same question.
Outgoing: t

Others:
Incoming: Test call, this molecule: `C[N+]1(CCC(C(N)=O)(c2ccccc2)c2ccccc2)CCCCC1`
Outgoing: f

Incoming: Would you mind doing CNC(=O)NC(O)C(Cl)(Cl)Cl (centres undefined) as well?
Outgoing: f

Incoming: What do we get for C[C@@H]1CN(C2CCC(C#N)(c3ccc(F)cc3)CC2)CC[C@]1(C(=O)O)c1ccccc1 (some centres undefined) ?
Outgoing: f

Incoming: Also need `CCCOC(=O)Cc1ccc(OCC(=O)N(CC)CC)c(OC)c1` , thanks.
Outgoing: f

Incoming: Try the molecule O=P1(NCCCl)OCCCN1CCCl (centres undefined)
Outgoing: f

Incoming: Next up: O=P1(N(CCCl)CCCl)NCCCO1 (centres undefined)
Outgoing: t

Incoming: Next: CC[N+]1(CC)CCC(OC(=O)C(O)(c2ccccc2)c2ccccc2)C1 (centres undefined)
Outgoing: f

Incoming: Further, for `CCC(CC)(CNC(=O)CCCO)c1cccc(OC)c1` ?
Outgoing: f

Incoming: Please answer likewise for `O=[N+]([O-])/N=C1\NCCN1Cc1ccc(Cl)nc1`
Outgoing: f

Incoming: Same thing, different molecule: `C[C@]12C[C@@H]3S[C@H]3C[C@@H]1CC[C@H]1[C@H]3CC[C@@H](O)[C@@]3(C)CC[C@@H]12`
Outgoing: f

Incoming: Repeat for the following molecule: N#Cc1nn(-c2c(Cl)cc(C(F)(F)F)cc2Cl)c(N)c1S(=O)C(F)(F)F (centres undefined)
Outgoing: f

Incoming: Try this molecule next: CN1[C@@H]2CC[C@H]1CC(OC(=O)c1cc(Cl)cc(Cl)c1)C2 (some centres undefined)
Outgoing: t

Incoming: Now consider CC(CCc1ccccc1)NC(C)C(O)c1ccc(O)cc1 (centres undefined) .
Outgoing: f

Incoming: Same read-out for COC(=O)c1cncn1C(C)c1ccccc1 (centres undefined) ?
Outgoing: f

====

Assay: differential killing of epithelial or mesenchymal cells, primary screen, imaging, PC-3E GFP, TEM4-18 mCherry, co-culture (AID 1345086);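 note: normalised mesenchymal count divided by normalised epithelial count so high means epithelial killing; cells exposed to compound for 72 h before imaging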
Conditions: imaging cell counts, at 1 µM, actives lie on both sides
Assignment: determine reported red/green cell ratio (normalised) for the given compounds.
Give bare numbers.

Below: 5 compounds and their reported red/green cell ratio (normalised).
Incoming: What value of measured red/green cell ratio (normalised) is listed for CNC(C)[C@H](O)c1ccccc1 (stereo not given in full) ?
Outgoing: 1.42

Incoming: Now the compound CC(=O)O[C@@H]1CC2C(C)(C)C(=O)C=C[C@]2(C)C2CC[C@]3(C)C(=CC(=O)O[C@H]3c3ccoc3)[C@@]21C (stereo not given in full)
Outgoing: 1.01

Incoming: And the next one, `O=C1CN=C(c2ccccc2Cl)c2cc([N+](=O)[O-])ccc2N1` ?
Outgoing: 1.15

Incoming: Now the same for `CC(C)[N+](C)(CCC(C(N)=O)(c1ccccc1)c1ccccc1)C(C)C`
Outgoing: 0.98

Incoming: // query: CCN1C[C@]2(OC(=O)c3ccccc3NC(C)=O)CCC(OC)[C@]34C1[C@@H](CC23)[C@@]1(O)CC(OC)[C@H]2CC4C1(O)[C@H]2OC (stereo not given in full)
Outgoing: 1

Batch: red/green cell ratio (normalised) for all items listed.
1. COc1ccc(OC)c(C(O)C(C)N)c1 (stereo not given)
2. NCCc1c[nH]c2ccc(O)cc12
3. COc1cc2c(cc1-c1cc3cc4ccoc4cc3oc1=O)OCO2
4. CC1(C)C(=O)[C@@H]2O[C@@H]2[C@@]2(C)C1C[C@@H](O)[C@]1(C)C2CC[C@@]2(C)[C@H](c3ccoc3)OC(=O)C3OC321 (stereo not given in full)
5. COC(=O)[C@]1(C)CC[C@]2(C)CC[C@]3(C)C4=CC=C5C(=CC(=O)C(O)=C5C)[C@]4(C)CC[C@@]3(C)[C@@H]2C1
6. CCOC(=O)c1cncn1[C@H](C)c1ccccc1
7. c1ccc2c(c1)[nH]c1cnccc12

Outgoing:
1: 0.84; 2: 1.02; 3: 0.88; 4: 1.01; 5: 0.14; 6: 0.98; 7: 1

# map each compound to its red/green cell ratio (normalised)
1. O=[N+]([O-])c1ccc(O)c([N+](=O)[O-])c1
2. COc1cc2c(c(OC)c1OC)-c1ccc(O)c(=O)cc1C(N)CC2 (stereo not given)
3. CN[C@@H](C)[C@@H](O)c1ccccc1
4. C[C@]12CCC(=O)C=C1CCC1C2CC[C@@]2(C)C1CC[C@H]2O (stereo not given in full)
5. N[C@H](CO)Cc1ccccc1

Outgoing:
1. 0.86
2. 0.78
3. 1.05
4. 1.17
5. 1

Return reported red/green cell ratio (normalised) values for all items listed beneath this line.
1. O=P1(N(CCCl)CCCl)NCCCO1 (stereo not given)
2. O=C1C(Cl)=C(Cl)C(=O)C(Cl)=C1Cl
3. CN1C2C[C@H](OC(=O)[C@H](CO)c3ccccc3)C[C@H]1[C@@H](O)C2
4. C[C@@H]1C[C@@H]([C@H](O)CC2CC(=O)NC(=O)C2)C(=O)[C@@H](C)C1
5. NC1C[C@H]1c1ccccc1 (stereo not given in full)
6. CC(=O)O[C@@H]1CC[C@]2(C)C3CC[C@]4(C)C(=O)CCC4C3CC[C@H]2C1 (stereo not given in full)

Outgoing:
1. 1.26
2. 1.04
3. 0.94
4. 0.97
5. 1.23
6. 1.18

Consider the following items and state reported red/green cell ratio (normalised) for each.
1. CC[C@H]1CN2CCC1C[C@@H]2[C@@H](O)c1ccnc2ccc(OC)cc12 (stereo not given in full)
2. NC(N)=NOCC[C@H](N)C(=O)O

Outgoing:
1: 0.99; 2: 1.04
